Molecular target: T1, murine GPC3-his protein (murine, UniProt Q8CFZ4 25-558, limits assumed)
T1 construct: Bought protein; also called mouse GPC3 protein; murine GPC3 protein; not shown: His tag
T1 sequence (Q8CFZ4 25-558 limits assumed): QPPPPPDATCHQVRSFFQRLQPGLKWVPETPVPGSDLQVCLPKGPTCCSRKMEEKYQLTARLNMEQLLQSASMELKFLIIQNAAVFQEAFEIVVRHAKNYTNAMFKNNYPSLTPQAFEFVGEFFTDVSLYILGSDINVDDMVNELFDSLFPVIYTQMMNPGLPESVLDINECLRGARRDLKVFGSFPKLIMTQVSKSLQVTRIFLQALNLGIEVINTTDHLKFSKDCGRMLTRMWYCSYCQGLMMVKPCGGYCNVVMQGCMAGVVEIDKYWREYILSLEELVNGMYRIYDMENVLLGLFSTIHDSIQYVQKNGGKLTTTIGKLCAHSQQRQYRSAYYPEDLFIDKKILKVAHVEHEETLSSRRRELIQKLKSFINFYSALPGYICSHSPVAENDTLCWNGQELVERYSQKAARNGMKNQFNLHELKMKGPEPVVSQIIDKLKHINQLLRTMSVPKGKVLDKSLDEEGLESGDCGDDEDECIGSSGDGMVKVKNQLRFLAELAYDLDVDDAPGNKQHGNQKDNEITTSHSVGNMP
Test: ELISA, murine GPC3-his coated; antibody 2.67 nM
readout-kind: OD450 nm
Answer with a number only.

Consider the binder shown here: hAb001H1L1 (antibody, human IgG1, V domains shown, Humanized F2.169.2, H1+L1) VH: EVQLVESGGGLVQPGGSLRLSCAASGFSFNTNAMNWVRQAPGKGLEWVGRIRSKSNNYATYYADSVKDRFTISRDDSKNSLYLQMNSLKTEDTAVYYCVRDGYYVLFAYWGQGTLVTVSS VL: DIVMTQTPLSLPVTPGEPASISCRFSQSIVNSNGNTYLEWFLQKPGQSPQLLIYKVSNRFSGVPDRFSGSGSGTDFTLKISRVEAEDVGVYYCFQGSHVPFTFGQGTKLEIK What is its recorded OD450 nm?
2.69

Follow-up entry: hAb001H2L1a (antibody, human IgG1, V domains shown, Humanized F2.169.2, H2+L1a) VH: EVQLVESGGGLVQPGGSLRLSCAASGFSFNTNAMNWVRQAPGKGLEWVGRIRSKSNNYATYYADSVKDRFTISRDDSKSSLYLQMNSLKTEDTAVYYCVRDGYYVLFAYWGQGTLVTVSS VL: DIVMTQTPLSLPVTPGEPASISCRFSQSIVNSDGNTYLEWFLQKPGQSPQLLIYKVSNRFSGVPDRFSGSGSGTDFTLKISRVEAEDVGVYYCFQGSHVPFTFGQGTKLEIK
2.35

Follow-up entry: hAb001H1L1a (antibody, human IgG1, V domains shown, Humanized F2.169.2, H1+L1a) VH: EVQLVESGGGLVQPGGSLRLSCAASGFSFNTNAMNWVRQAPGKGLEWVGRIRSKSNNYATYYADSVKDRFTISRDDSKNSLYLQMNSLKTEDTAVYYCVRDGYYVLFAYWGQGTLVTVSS VL: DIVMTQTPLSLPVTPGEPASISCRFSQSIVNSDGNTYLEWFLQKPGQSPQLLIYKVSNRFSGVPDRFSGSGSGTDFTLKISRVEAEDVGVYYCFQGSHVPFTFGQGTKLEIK
2.49

Follow-up entry: hAb001H2L1 (antibody, human IgG1, V domains shown, Humanized F2.169.2, H2+L1) VH: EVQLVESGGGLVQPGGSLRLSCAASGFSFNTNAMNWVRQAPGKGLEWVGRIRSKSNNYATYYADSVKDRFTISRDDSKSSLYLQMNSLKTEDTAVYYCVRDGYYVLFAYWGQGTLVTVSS VL: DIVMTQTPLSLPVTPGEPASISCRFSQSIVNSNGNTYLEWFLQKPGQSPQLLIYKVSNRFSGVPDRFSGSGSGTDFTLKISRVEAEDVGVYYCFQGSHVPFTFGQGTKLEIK
2.59

Then this binder:
Consider the binder shown here: hAb001H2L1b (antibody, human IgG1, V domains shown, Humanized F2.169.2, H2+L1b) VH: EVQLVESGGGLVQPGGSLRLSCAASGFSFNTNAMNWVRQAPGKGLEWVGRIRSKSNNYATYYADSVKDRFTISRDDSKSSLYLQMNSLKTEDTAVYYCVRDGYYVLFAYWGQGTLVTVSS VL: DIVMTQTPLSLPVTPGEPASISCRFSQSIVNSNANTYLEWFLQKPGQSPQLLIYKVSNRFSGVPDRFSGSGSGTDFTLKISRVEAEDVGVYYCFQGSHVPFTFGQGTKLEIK What is its recorded OD450 nm?
2.44
